Tested on: NIH3T3 cells stably expressing the mCherry-GFP-LC3 reporter
Assay: Macroautophagy activity, mCherry-GFP-LC3 reporter
Type: cell-based, mouse
Conditions: c0 = 5 (axis unlabelled)
Recorded AUT (Fig. S3e) values for a group of compounds are listed next.

compound	AUT (Fig. S3e)
CO[C@H]1C[C@@H]2CC[C@@H](C)[C@@](O)(O2)C(=O)C(=O)N2CCCC[C@H]2C(=O)O[C@H]([C@H](C)C[C@@H]2CC[C@@H](O)[C@H](OC)C2)CC(=O)[C@H](C)/C=C(\C)[C@@H](O)[C@@H](OC)C(=O)[C@H](C)C[C@H](C)/C=C/C=C/C=C/1C [rapamycin, reference compound]	2.129
Cc1ccc(C2=Nc3ccc(Cl)cc3OC2)cc1 [AR7, reference compound]	2.321
Clc1ccc2c(c1)OCC(c1ccc(-c3ccccc3)cc1)=N2	1.522
CC(=O)Nc1ccc(C2=Nc3ccc(Cl)cc3OC2)cc1	0.7542
